Attribution: ChEMBL document CHEMBL3763110

- ASSAY SYSTEM: Polyunsaturated fatty acid lipoxygenase ALOX15 (Mus musculus) (UniProt P39654)
- Sequence (P39654 whole entry): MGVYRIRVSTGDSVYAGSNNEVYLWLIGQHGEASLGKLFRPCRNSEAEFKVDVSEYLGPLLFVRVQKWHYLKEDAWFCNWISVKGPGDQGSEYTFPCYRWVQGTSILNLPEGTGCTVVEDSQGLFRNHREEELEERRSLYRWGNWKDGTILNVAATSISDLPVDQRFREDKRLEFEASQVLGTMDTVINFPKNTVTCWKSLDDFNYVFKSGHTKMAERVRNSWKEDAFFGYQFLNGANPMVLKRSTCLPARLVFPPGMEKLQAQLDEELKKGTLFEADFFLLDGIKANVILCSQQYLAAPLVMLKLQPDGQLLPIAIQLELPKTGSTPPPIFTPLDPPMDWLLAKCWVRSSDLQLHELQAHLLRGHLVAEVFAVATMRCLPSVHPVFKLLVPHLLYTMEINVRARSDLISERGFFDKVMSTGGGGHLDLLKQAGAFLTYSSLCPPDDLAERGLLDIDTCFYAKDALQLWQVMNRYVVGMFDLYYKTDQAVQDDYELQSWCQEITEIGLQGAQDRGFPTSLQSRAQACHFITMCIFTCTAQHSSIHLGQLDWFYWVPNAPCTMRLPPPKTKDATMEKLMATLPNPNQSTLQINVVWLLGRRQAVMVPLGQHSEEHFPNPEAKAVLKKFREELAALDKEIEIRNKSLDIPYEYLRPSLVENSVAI
- TEST NAME: Inhibition of glutamate-induced 12/15-LOX-dependent cell death in mouse HT22 cells assessed as increase in cell survival at 5 uM by LDH release assay
- Assay type: cell-based
- MEASUREMENT SETUP: HT-22
MEASURED PARAMETER: Survival (%)
Your answer is read as %, so omit the unit and give the number.

Lookup: # query: Survival of entry COc1ccc(-c2cc(-c3ccccc3O)[nH]n2)cc1
Found: 7

Lookup: # query: Survival of entry COc1ccc(O)c(-c2cc(-c3cccc(Br)c3)[nH]n2)c1
Found: 70

Lookup: # query: Survival of entry Cc1ccc(O)c(-c2cc(-c3cccc(F)c3)[nH]n2)c1
Found: 49

Lookup: # query: Survival of entry COc1ccc(O)c(-c2cc(-c3ccccc3Cl)[nH]n2)c1
Found: 83

Lookup: # query: Survival of entry Oc1ccccc1-c1cc(-c2ccco2)[nH]n1
Found: 34
